// provenance: ChEMBL document CHEMBL1134442

Biological target: Phosphodiesterase 4 (Homo sapiens, UniProt P27815+Q08499+Q07343+Q08493)
Assay: Inhibition of phosphodiesterase 4 (PDE4) in human neutrophils
Assay type: protein assay
measured-quantity: pIC50

# annotated cases, reported pIC50 shown
molecule="COc1ccc(C2=NN(C3CCCCCC3)C(=O)C3CC=CCC23)c2c1OC1(CCCC1)C2 (centres undefined)" value_measured=9.2
molecule="COc1ccc(C2=NN(Cc3ccccc3)C(=O)C3CCCCC23)cc1 (centres undefined)" value_measured=5.9
molecule="COc1ccc(C2=NN(Cc3ccccc3)C(=O)C3CCCCC23)c2c1OC1(CCCC1)C2 (centres undefined)" value_measured=8.6
molecule="COc1ccc(C2=NN(C3CCCCCC3)C(=O)C3CC=CCC23)cc1OCC(=O)O (centres undefined)" value_measured=5.6
molecule="COc1ccc(C2=NN(C3CCCCCC3)C(=O)C3CC=CCC23)cc1OCCN(C)C (centres undefined)" value_measured=7.2
molecule="COc1ccc(C2=NN(C3CCCCCC3)C(=O)C3CC=CCC23)cc1O (centres undefined)" value_measured=7.4
molecule="COc1ccc(C2=NN(C3CCCCCC3)C(=O)C3CC=CCC23)cc1OCCCCOc1ccc(-c2nn[nH]n2)cc1 (centres undefined)" value_measured=9.2
molecule="COc1ccc(C2=NN(C3CCCCCC3)C(=O)C3CC=CCC23)cc1OC1CCCC1 (centres undefined)" value_measured=8.9
molecule="COc1ccc(C2=NN(C3CCCCCC3)C(=O)C3CC=CCC23)cc1OCCCC(=O)O (centres undefined)" value_measured=7.2
molecule="COc1ccc(C2=NN(Cc3ccccc3)C(=O)C3CCCCC23)cc1OC1CCCC1 (centres undefined)" value_measured=8

(P) COc1ccc(C2=NN(C3CCCCCC3)C(=O)C3CC=CCC23)cc1OCC1CC1 (centres undefined)
(Q) O=C1C2CCCCC2C(c2ccc3c(c2)OCO3)=NN1Cc1ccccc1 (centres undefined)
// pick min by pIC50: P , Q Lab note: record the label of whichever item you select.
Q
(Q: 5.8, P: 9)
